// reported pest or weed control at 250 µg/mL for each item listed
- Tested on: Tobamovirus tabaci (tobacco mosaic virus, TMV) on Nicotiana tabacum cv. Xanthi
- procedure.details: SAR induction assay: necrotic area after TMV inoculation of sprayed tobacco
- Format: in vivo
- experimental.conditions: topical; 250 mg/L, compared with untreated control plants; read-out: Reduction in Necrotic Area
- Procedure: Plants of Nicotiana tabacum cv. Xanthi were grown under greenhouse conditions at 25 °C and 50% relative humidity, under natural daylight during the May–August growing season, with a natural photoperiod. […] In all experiments, the TMV SL-1 isolate Tobamovirus (TMV) was used. […] The concentration of virus in the obtained preparation was determined spectrophotometrically. […] The surface of a leaf or an area with necrotic spots is represented by a set of pixels in the image, which are counted by the program. […]
Report the figure in % without appending any unit label.

Here is how some compounds turned out for pest or weed control at 250 µg/mL.
O=C(O)c1cccnc1 : 36.1
O=C(O)c1ccccc1O : 27.4
O=C(O)c1cc(Cl)ccc1O : 90.5
O=C(O)c1cccc(Cl)c1O : 92.5

Q. // returns reported pest or weed control at 250 µg/mL for input `O=C(O)c1cc(Cl)cc(Cl)c1O`
A. 78.3

Q. // returns reported pest or weed control at 250 µg/mL for input `O=C(O)c1ccc(Cl)cc1O`
A. 74.9

Q. // returns reported pest or weed control at 250 µg/mL for input `O=C(O)c1ccncc1`
A. 26

Q. // returns reported pest or weed control at 250 µg/mL for input `O=C(O)c1cc(Cl)nc(Cl)c1`
A. 56.9

----------
// reported Mass of 25 Sprouts for each item listed
- Test system: radish (Raphanus sativus) sprouts
- procedure.details: Phytotoxicity test on radish sprouts
- Assay type: in vivo
- experimental.conditions: 125 mg/L, radish, 5 days; UTC 3.09 g

Here is how some compounds turned out for Mass of 25 Sprouts.
O=C(O)c1cc(Cl)nc(Cl)c1 [2,6-dichloroisonicotinic acid] : 1.85 ab B g
O=C(O)c1cccnc1 [Nicotinic acid] : 2.76 gh B
C[N+](C)(C)CCCl.O=C([O-])c1cc(Cl)nc(Cl)c1 [[CC][Ina]] : 2.63 fgh D
C[N+](C)(C)CCCl.O=C([O-])c1cc(Cl)cc(Cl)c1O [[CC][3,5-ClSal]] : 2.24 cde C g
C[N+](C)(C)CCCl.O=C([O-])c1cc(Cl)ccc1O [[CC][5-ClSal]] : 2.50 efg D

Q. // returns reported Mass of 25 Sprouts for input C[N+](C)(C)CCCl.O=C([O-])c1cccc(Cl)c1O [[CC][3-ClSal]]
A. 2.60 fgh D

----------
- Test system: radish (Raphanus sativus) sprouts
- procedure.details: Phytotoxicity test on radish sprouts
- Format: in vivo
- experimental.conditions: 125 mg/L, radish, 5 days; UTC 3.09 g
- Procedure: Twenty five seeds of radish (Raphanus sativus) were placed on a filter tissue in a Petri dish. […] Then, sprouts were weighted. All variants of treatment were tested together, with 3 replications (plates) in each of 2 cycles performed. Results were subjected to statistical analysis as described in Section 4.8. […]
// reported Mass of 25 Sprouts for each item listed

Q. // returns reported Mass of 25 Sprouts for input C[N+](C)(C)CCCl [[CC][Cl], Chlormequat chloride, reference compound]
A. 2.35 def B g

Q. // returns reported Mass of 25 Sprouts for input C[N+](C)(C)CCCl.O=C([O-])c1ccc(Cl)cc1O [[CC][4-ClSal]]
A. 2.84 hi D g

Q. // returns reported Mass of 25 Sprouts for input C[N+](C)(C)CCCl.O=C([O-])c1ccncc1 [[CC][IsoNic]]
A. 2.60 fgh C
